These data points were gathered from patent US4454128A.

Test system: Enterobacter cloacae ATCC 13 047
measuredProperty: MIC (µg/mL)
Only the number, expressed in µg/mL, is required.

[[record]]
molecule = "CO[C@@]1(NC(=O)C(NC(=O)Nc2cnc(Nc3ccc(S(N)(=O)=O)cc3)nc2O)c2ccc(O)cc2)C(=O)N2[C@@H](C(=O)O)C(C)(C)S[C@@H]21 (stereo partly shown)"
target = "Enterobacter cloacae ATCC 13 047"
measuredproperty = "MIC"
readoutnumber = 1

[[record]]
molecule = "CO[C@@]1(NC(=O)C(NC(=O)Nc2cnc(NCc3ccc(S(N)(=O)=O)s3)nc2O)c2ccc(O)cc2)C(=O)N2[C@@H](C(=O)O)C(C)(C)S[C@@H]21 (stereo partly shown)"
target = "Enterobacter cloacae ATCC 13 047"
measuredproperty = "MIC"
readoutnumber = 1

[[record]]
molecule = "CO[C@@]1(NC(=O)C(C(=O)O)c2ccsc2)C(=O)N2[C@@H](C(=O)O)C(C)(C)S[C@@H]21 (stereo partly shown) [Compound E, Temocillin, reference compound]"
target = "Enterobacter cloacae ATCC 13 047"
measuredproperty = "MIC"
readoutnumber = 4


input: Quick check: MIC of CO[C@@]1(NC(=O)C(NC(=O)Nc2cnc(NCc3ccc(S(N)(=O)=O)cc3)nc2O)c2ccc(O)cc2)C(=O)N2[C@@H](C(=O)O)C(C)(C)S[C@@H]21 (stereo partly shown) ?
output: 1
